Reported values of MIC S. pneumo. 1095 for individual entries
System: Streptococcus pneumoniae 1095
Type: cell-based
Conditions: S. pneumoniae 1095 (ermB); microtiter broth dilution

Known MIC S. pneumo. 1095 results, listed for orientation:
compound: CCC1OC(=O)C(C)C(=O)C(C)C(OC2OC(C)CC(N(C)C)C2O)C(C)(OC)CC(C)C(=O)C(C)C2N(CC3CCCN3C(=O)c3cc4ccccc4cn3)C(=O)OC12C.O=CO (stereo not drawn)
MIC S. pneumo. 1095: <0.06 µg/mL
//
compound: CC[C@H]1OC(=O)[C@H](C)C(=O)[C@H](C)[C@@H](O[C@@H]2O[C@H](C)C[C@H](N(C)C)[C@H]2O)[C@](C)(OC)C[C@@H](C)C(=O)[C@H](C)[C@H]2N(CC3(O)CN(C(=O)c4ccc5cccnc5c4)C3)C(=O)O[C@]12C
MIC S. pneumo. 1095: 0.5 µg/mL

Q. // returns reported MIC S. pneumo. 1095 for input CCC1OC(=O)C(C)C(=O)C(C)C(OC2OC(C)CC(N(C)C)C2O)C(C)(OC)CC(C)C(=O)C(C)C2N(CC3CCCN3C(=O)c3cccc4nccnc34)C(=O)OC12C (stereo not drawn)
A. <0.06 µg/mL

====

Reported values of MIC S. pneumo. 1095 for individual entries
Test system: Streptococcus pneumoniae 1095
Format: cell-based
Conditions: S. pneumoniae 1095 (ermB); microtiter broth dilution
Give a bare numeral; the unit µg/mL is implied.

Known MIC S. pneumo. 1095 results, listed for orientation:
molecule: CC[C@H]1OC(=O)[C@H](C)C(=O)[C@H](C)[C@@H](O[C@@H]2O[C@H](C)C[C@H](N(C)C)[C@H]2O)[C@](C)(OC)C[C@@H](C)C(=O)[C@H](C)[C@H]2N(CC3(C)CN(Cc4ccc5[nH]ccc5c4)C3)C(=O)O[C@]12C [6.10]
studyTarget: Streptococcus pneumoniae 1095
unitAnnotation: µg/mL
MIC S. pneumo. 1095: 0.25

molecule: CCC1OC(=O)C(C)C(=O)C(C)C(OC2OC(C)CC(N(C)C)C2O)C(C)(OC)CC(C)C(=O)C(C)C2N(CC3CCN(C(=O)c4cc5ccccn5n4)C3)C(=O)OC12C (stereo not shown) [11.16]
studyTarget: Streptococcus pneumoniae 1095
unitAnnotation: µg/mL
MIC S. pneumo. 1095: 8

Q. // returns reported MIC S. pneumo. 1095 for input CCC1OC(=O)C(C)C(=O)C(C)C(OC2OC(C)CC(N(C)C)C2O)C(C)(OC)CC(C)C(=O)C(C)C2N(CC3CCN(Cc4cccnc4OC)C3)C(=O)OC12C (stereo not shown) [11.09]
A. 4

Q. Another molecule to look at: CCC1OC(=O)C(C)C(=O)C(C)C(OC2OC(C)CC(N(C)C)C2O)C(C)(OC)CC(C)C(=O)C(C)C2N(CC3CCCN3C(=O)c3cccc4ncccc34)C(=O)OC12C (stereo not shown) [Example 12.11]
A. 0.5

Q. Another molecule to look at: CCC1OC(=O)C(C)C(=O)C(C)C(OC2OC(C)CC(N(C)C)C2O)C(C)(OC)CC(C)C(=O)C(C)C2N(CC3CCCN3C(=O)c3ccnc4[nH]cnc34)C(=O)OC12C (stereo not shown) [10.50]
A. 0.5

Q. Another molecule to look at: CCC1OC(=O)C(C)C(=O)C(C)C(OC2OC(C)CC(N(C)C)C2O)C(C)(OC)CC(C)C(=O)C(C)C2N(CC3CCCN3Cc3ccno3)C(=O)OC12C (stereo not shown) [10.01]
A. 0.25
